# EXPERIMENT_DESCRIPTION: Acute oral toxicity in mice
# Parameters: species or system male and female Swiss mice
# TEST_PARAMETERS: in vivo, mouse, 14 days, approximate value
ASSAY_ENDPOINT: LD50 at 336 h

Tell me the measured LD50 at 336 h of CC(C(=O)O)c1ccc(C(=O)c2ccco2)cc1 (racemic) , please. ~1000 mg/kg
